- Method notes: Pharmacokinetic study in rats: CP and DECP with and without KTZ, KTZ alone
- Assay type: in vivo
- Details: rat, plasma, iv, 10 mg/kg, Cmax, Group 2 (10 mg/kg KTZ oral, 50 min before); CP 10 mg/kg i.v., rats
Measure name: Cmax

GET /values?readout=Cmax&item= O=P1(N(CCCl)CCCl)NCCCO1 (stereo not shown) [CP, Cyclophosphamide] 10400 ng/mL

---

- Method notes: Pharmacokinetic study in rats: CP and DECP with and without KTZ, KTZ alone
- Format: in vivo
- Details: rat, plasma, iv, 10 mg/kg, Cmax, Group 4 (40 mg/kg KTZ oral, 50 min before); CP 10 mg/kg i.v., rats
Measure name: Cmax (ng/mL)
Numbers only, in ng/mL.

Which Cmax reading was recorded for the molecule O=P1(N(CCCl)CCCl)NCCCO1 (stereo not shown) [CP, Cyclophosphamide] ? 9600

---

- Method notes: Pharmacokinetic study in rats: CP and DECP with and without KTZ, KTZ alone
- Type: in vivo
- Details: rat, plasma, po, 20 mg/kg
Measure name: Tmax (min)
Numbers only, in min.

Requested field: Tmax. Item: CC(=O)N1CCN(c2ccc(OCC3COC(Cn4ccnc4)(c4ccc(Cl)cc4Cl)O3)cc2)CC1 (stereo not shown) 30.8

---

- Method notes: Pharmacokinetic study in rats: CP and DECP with and without KTZ, KTZ alone
- Type: in vivo
- Details: rat, plasma, iv, 10 mg/kg, MRT0–∞, Group 4 (40 mg/kg KTZ oral, 50 min before); CP 10 mg/kg i.v., rats
Measure name: MRT inf (h)
Give bare numbers, in h.

Given the compound O=P1(N(CCCl)CCCl)NCCCO1 (stereo not shown) [CP, Cyclophosphamide] , what is its reported MRT inf? 2.67

---

- Method notes: Pharmacokinetic study in rats: CP and DECP with and without KTZ, KTZ alone
- Format: in vivo
- Details: rat, plasma, iv, 10 mg/kg, MRT0–∞, Group 1 (0 mg/kg KTZ); CP 10 mg/kg i.v., rats
Measure name: MRT inf (h)
Answers are plain numbers, in h.

Name the reported MRT inf value associated with the compound O=P1(N(CCCl)CCCl)NCCCO1 (stereo not shown) [CP, Cyclophosphamide] 1.9

---

- Method notes: Pharmacokinetic study in rats: CP and DECP with and without KTZ, KTZ alone
- Format: in vivo
- Details: rat, plasma, iv, 10 mg/kg, MRT0–t, Group 4 (40 mg/kg KTZ oral, 50 min before); CP 10 mg/kg i.v., rats
Measure name: MRT last (h)
Answers are plain numbers, in h.

Field request: MRT last | item: O=P1(N(CCCl)CCCl)NCCCO1 (stereo not shown) [CP, Cyclophosphamide] 2.65

---

- Method notes: Pharmacokinetic study in rats: CP and DECP with and without KTZ, KTZ alone
- Format: in vivo
- Details: rat, plasma, iv, 10 mg/kg, AUC0→t, Group 4 (40 mg/kg KTZ oral, 50 min before); CP 10 mg/kg i.v., rats
Measure name: AUC(0-t) (ng·h/mL)
One number for each entry, in ng·h/mL.

So what's the measured AUC(0-t) for this one? O=P1(N(CCCl)CCCl)NCCCO1 (stereo not shown) [CP, Cyclophosphamide] 38200

---

- Method notes: Pharmacokinetic study in rats: CP and DECP with and without KTZ, KTZ alone
- Type: in vivo
- Details: rat, plasma, iv, 10 mg/kg, Tmax, Group 2 (10 mg/kg KTZ oral, 50 min before); CP 10 mg/kg i.v., rats
Measure name: Tmax (min)
Answers are plain numbers, in min.

Fill in the blank: the reported Tmax of O=P1(N(CCCl)CCCl)NCCCO1 (stereo not shown) [CP, Cyclophosphamide] is ____. 11.6
